Reported z-score values for a set of compounds
assay: A549 lung cancer cell viability effects, profiling panel, resazurin fluorescence, 24 h, PK04 Diversity Set (AID 1171); conditions: higher = more signal, called active from +8 up or from −8 down; further: test concentration not given here
# print the numeric value only

Before answering, review these 6 worked examples.
Enquiry: Entry CN1C(=O)C2C=CC(C(O)COCc3ccccc3)N(N(c3ccccc3)c3ccccc3)C2C1=O (configuration not stated) has what z-score?
Return: 0.419

Enquiry: Another compound to look at: CCOC(=O)C1=C[C@@H](c2ccccc2)N(S(=O)(=O)c2ccc(C)cc2)[C@H]1c1ccccc1Cl
Return: 1.09

Enquiry: Try this compound next: C=CCC(OC(C)=O)[C@@H]1[C@@H](N(Cc2cccc3ccccc23)C(=O)c2cccc3ccccc23)c2cc(OCCCO)ccc2N1C(=O)c1ccc(-c2ccccc2)cc1 (some centres not stated)
Return: -0.227

Enquiry: What about CCOC(=O)[C@H]1[C@@H]2C(=O)N3CCC[C@H]3[C@H](O[Si](C(C)C)(C(C)C)C(C)C)[C@H]2C=C2CCN(S(=O)(=O)c3ccc(C)cc3)C[C@H]21 ?
Return: -0.742

Enquiry: Next compound: O[C@@H](Cc1ccccc1)[C@@H](/C=C/C1CC1)N(CC#Cc1ccccc1)Cc1cccc(Cl)c1
Return: 2.89

Enquiry: Would you kindly repeat that for O=C1N(Cc2ccccc2)c2ccccc2[C@@H]2OC(c3ccc(OCCCO)cc3)=N[C@]12Cc1ccccc1 ?
Return: -1.72

Turning now to a further record.
Enquiry: So what's the measured z-score for this one? COc1cc(CO)cc(I)c1O[C@H]1C=C(C(=O)NCCO)C[C@@H](NCc2ccc(F)cc2)[C@@H]1O
Return: -0.183

====

experiment: small-molecule binders of probe aNOTCH3, primary screen, biochemical, small-molecule microarray, 635/667 nm fluorescence (AID 1120); conditions: higher = more signal;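 further: probe is a biotin-tagged antibody raised against NOTCH3 rather than NOTCH3 protein; score merges spot fluorescence near 667 nm with spot signal to noise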
VALUE TYPE: composite z-score
Reply briefly: the number, and no unit.

Enquiry: Query: composite z-score; subject: O=C1OCC=C[C@H]2OC34C=CCN(Cc5ccccc5)C(=O)[C@H]3N(CCCCCCO)C(=O)[C@@H]4[C@@H]12 (stereo partly drawn)
Return: -0.302

Enquiry: Further, for COc1ccc(CCNC(=O)[C@@H]2c3ccccc3C(=O)N(Cc3cc(C(F)(F)F)cc(C(F)(F)F)c3)[C@H]2c2ccc(CO)cc2)cc1 ?
Return: -0.208

Enquiry: Now try COCCCNC(=O)[C@]1(CCS(=O)(=O)c2ccccc2)N=C(c2ccc(OCCCO)cc2)O[C@@H]1c1ccccc1N=[N+]=[N-] .
Return: 0.486

Enquiry: Another compound to look at: C=C[C@@H](COC(C)=O)N(C(=O)OC(C)(C)C)S(=O)(=O)c1ccc(Br)cc1
Return: 0.0494

Enquiry: Try this compound too: O=C1NC(=O)C2C1C=CC(C(O)c1c(F)cccc1Cl)N2Nc1ccc(Cl)cc1Cl (stereo not drawn)
Return: 0.525

Enquiry: Please answer likewise for C=CC1c2cc(O)c(OC)cc2CCN1Cc1cc2c(cc1Br)OCO2 (stereo not drawn)
Return: -0.0152

Enquiry: And what about the compound Cc1ccc(S[C@]2(C(=O)NCC(F)(F)F)CC(=O)N(Cc3ccccc3)[C@@H]2c2ccc(CO)cc2I)cc1 ?
Return: -0.212

New cases:
Enquiry: Which composite z-score value belongs to O=C1C2C=CC(C(O)c3ccc(F)cc3)N(n3cnnc3)C2C(=O)N1Cc1ccccc1 (stereo not drawn) ?
Return: 0.0065
